- System: M abscessus ATCC 19977 Type strain
- assaySummary: checkerboard minimum inhibitory concentration (MIC) assay with FICI calculation
- Format: cell-based
- conditionSummary: labelled Antiinfective-Y in combination with amikacin; M abscessus ATCC 19977
attributeMeasured: FICI (Fractional Inhibitory Concentration Index)
In your answer, state the number alone without any accompanying words.

## Task Provide FICI (Fractional Inhibitory Concentration Index) value for the following compound: C[C@@H](O)[C@H]1C(=O)N2C(C(=O)[O-])=C(SC3Cn4cnc[n+]4C3)[C@H](C)[C@H]12 (stereo partly drawn) [Biapenem]
## Result 0.07

## Task Supply FICI (Fractional Inhibitory Concentration Index) value. Item: CC[C@H]1OC(=O)[C@H](C)[C@@H](O[C@H]2C[C@@](C)(OC)[C@@H](O)[C@H](C)O2)[C@H](C)[C@@H](O[C@@H]2O[C@H](C)C[C@H](N(C)C)[C@H]2O)[C@](C)(OC)C[C@@H](C)C(=O)[C@H](C)[C@@H](O)[C@]1(C)O [Clarithromycin]
## Result 2.50

## Task Using the record for COc1nc2ccc(Br)cc2cc1[C@@H](c1ccccc1)[C@@](O)(CCN(C)C)c1cccc2ccccc12 [Bedaquiline] , state its measured FICI (Fractional Inhibitory Concentration Index).
## Result 0.09

## Task Identify FICI (Fractional Inhibitory Concentration Index) associated with the compound C[C@@H](O)[C@H]1C(=O)N2C(C(=O)O)=C(SC3CN(C4=NCCS4)C3)[C@H](C)[C@H]12 [Tebipenem]
## Result 0.28

## Task Supply reported FICI (Fractional Inhibitory Concentration Index) belonging to this compound: C=CC1=C(C(=O)O)N2C(=O)[C@@H](NC(=O)/C(=N\O)c3csc(N)n3)[C@H]2SC1 [Cefdinir]
## Result 0.13

## Task Specify measured FICI (Fractional Inhibitory Concentration Index) for C[C@H]1COc2c(N3CCN(C)CC3)c(F)cc3c(=O)c(C(=O)O)cn1c23 [Levofloxacin] .
## Result 0.14

====

- Test system: M abscessus ATCC 19977 Type strain
- assaySummary: checkerboard minimum inhibitory concentration (MIC) assay with FICI calculation
- Assay type: cell-based
- conditionSummary: labelled Antiinfective-Y in combination with amikacin; M abscessus ATCC 19977
Answer each item with its documented FICI (Fractional Inhibitory Concentration Index).
# respond with the number and nothing more

## Task Return reported FICI (Fractional Inhibitory Concentration Index). Input compound: CC[C@@H](CO)NCCN[C@@H](CC)CO [Ethambutol]
## Result 0.38

## Task Please give measured FICI (Fractional Inhibitory Concentration Index) of the following entry: CO[C@H]1/C=C/O[C@@]2(C)Oc3c(C)c(O)c4c(c3C2=O)C2=NC3(CCN(CC(C)C)CC3)NC2=C(NC(=O)/C(C)=C\C=C\[C@H](C)[C@H](O)[C@@H](C)[C@@H](O)[C@@H](C)[C@H](OC(C)=O)[C@@H]1C)C4=O [Rifabutin]
## Result 0.31

## Task Return reported FICI (Fractional Inhibitory Concentration Index). Input compound: Cn1nnc(-c2ccc(-c3ccc(N4C[C@H](CO)OC4=O)cc3F)cn2)n1 [Tedizolid]
## Result 3.00

## Task Output measured FICI (Fractional Inhibitory Concentration Index) for this item: CN[C@H](CC(C)C)C(=O)N[C@H]1C(=O)N[C@@H](CC(N)=O)C(=O)N[C@H]2C(=O)N[C@H]3C(=O)N[C@H](C(=O)N[C@H](C(=O)O)c4cc(O)cc(O)c4-c4cc3ccc4O)[C@H](O)c3ccc(c(Cl)c3)Oc3cc2cc(c3O[C@@H]2O[C@H](CO)[C@@H](O)[C@H](O)[C@H]2O[C@H]2C[C@](C)(N)[C@H](O)[C@H](C)O2)Oc2ccc(cc2Cl)[C@H]1O [Vancomycin]
## Result 0.50

## Task For the compound C[C@@H](O)[C@H]1C(=O)N2C(C(=O)O)=C(SCCN=CN)C[C@H]12 [Imipenem] , give its reported FICI (Fractional Inhibitory Concentration Index).
## Result 0.38

## Task Please indicate FICI (Fractional Inhibitory Concentration Index) recorded for COc1ccc2cc1Oc1ccc(cc1)C[C@H]1c3cc(c(OC)cc3CCN1C)Oc1c(OC)c(OC)cc3c1[C@H](C2)N(C)CC3 [Tetrandrine]
## Result 0.25

====

- Tested on: M abscessus ATCC 19977 Type strain
- assaySummary: checkerboard minimum inhibitory concentration (MIC) assay with FICI calculation
- Type: cell-based
- conditionSummary: 168 h; Antiinfective-Y alone; M abscessus ATCC 19977; 37° C., 7 days; absorbance 595 nm; read-out: Active Agent-Y MIC Alone
attributeMeasured: MIC (µg/mL)
The response must be a number in µg/mL with no trailing unit.

## Task Return reported MIC for target or system M abscessus ATCC 19977 Type strain, item CC(=O)NC[C@H]1CN(c2ccc(N3CCOCC3)c(F)c2)C(=O)O1 .
## Result 2

## Task # lookup: M abscessus ATCC 19977 Type strain MIC, key = C[C@@H](O)[C@H]1C(=O)N2C(C(=O)O)=C(S[C@@H]3CN[C@H](CNS(N)(=O)=O)C3)[C@H](C)[C@H]12
## Result 4

## Task Determine reported MIC for CO[C@H]1/C=C/O[C@@]2(C)Oc3c(C)c(O)c4c(c3C2=O)C2=NC3(CCN(CC(C)C)CC3)NC2=C(NC(=O)/C(C)=C\C=C\[C@H](C)[C@H](O)[C@@H](C)[C@@H](O)[C@@H](C)[C@H](OC(C)=O)[C@@H]1C)C4=O ; test system: M abscessus ATCC 19977 Type strain.
## Result 1
